tested on: PPARa:RXRa (NR concentration 270 nM, RXRa partner concentration 90 nM); assay: PBM binding z-score (relative to random genomic background probes); higher = stronger binding; sequences stand for … in GC…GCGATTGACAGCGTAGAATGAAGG
Listing of entries alongside the reported PBM binding z-score.

sequence-data: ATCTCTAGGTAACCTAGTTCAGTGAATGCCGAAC
experimental-target: PPARa:RXRa (NR concentration 270 nM, RXRa partner concentration 90 nM)
PBM binding z-score: 2.24
--
sequence-data: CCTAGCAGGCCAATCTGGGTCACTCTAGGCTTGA
experimental-target: PPARa:RXRa (NR concentration 270 nM, RXRa partner concentration 90 nM)
PBM binding z-score: 2.36
--
sequence-data: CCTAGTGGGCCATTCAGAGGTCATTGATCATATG
experimental-target: PPARa:RXRa (NR concentration 270 nM, RXRa partner concentration 90 nM)
PBM binding z-score: 3.98
--
sequence-data: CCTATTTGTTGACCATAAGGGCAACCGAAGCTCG
experimental-target: PPARa:RXRa (NR concentration 270 nM, RXRa partner concentration 90 nM)
PBM binding z-score: 0.847
--
sequence-data: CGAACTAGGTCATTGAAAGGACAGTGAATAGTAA
experimental-target: PPARa:RXRa (NR concentration 270 nM, RXRa partner concentration 90 nM)
PBM binding z-score: 4.42
--
sequence-data: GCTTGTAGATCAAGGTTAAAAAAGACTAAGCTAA
experimental-target: PPARa:RXRa (NR concentration 270 nM, RXRa partner concentration 90 nM)
PBM binding z-score: 1.84
--
sequence-data: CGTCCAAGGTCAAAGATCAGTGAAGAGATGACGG
experimental-target: PPARa:RXRa (NR concentration 270 nM, RXRa partner concentration 90 nM)
PBM binding z-score: 5.75
--
sequence-data: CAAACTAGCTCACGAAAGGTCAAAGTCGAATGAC
experimental-target: PPARa:RXRa (NR concentration 270 nM, RXRa partner concentration 90 nM)
PBM binding z-score: 5.38
--
sequence-data: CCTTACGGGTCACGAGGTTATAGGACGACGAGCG
experimental-target: PPARa:RXRa (NR concentration 270 nM, RXRa partner concentration 90 nM)
PBM binding z-score: 5.93
--
sequence-data: ATACCAAGGTGAACGTGAGGTCGTTGATACTAAC
experimental-target: PPARa:RXRa (NR concentration 270 nM, RXRa partner concentration 90 nM)
PBM binding z-score: 2.87
--
sequence-data: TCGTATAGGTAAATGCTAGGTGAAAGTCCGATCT
experimental-target: PPARa:RXRa (NR concentration 270 nM, RXRa partner concentration 90 nM)
PBM binding z-score: 0.931
--
sequence-data: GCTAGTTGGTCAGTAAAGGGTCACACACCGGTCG
experimental-target: PPARa:RXRa (NR concentration 270 nM, RXRa partner concentration 90 nM)
PBM binding z-score: 3.36
--
sequence-data: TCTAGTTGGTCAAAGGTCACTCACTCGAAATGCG
experimental-target: PPARa:RXRa (NR concentration 270 nM, RXRa partner concentration 90 nM)
PBM binding z-score: 6.16
--
sequence-data: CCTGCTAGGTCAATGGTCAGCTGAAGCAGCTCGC
experimental-target: PPARa:RXRa (NR concentration 270 nM, RXRa partner concentration 90 nM)
PBM binding z-score: 3.22
--
sequence-data: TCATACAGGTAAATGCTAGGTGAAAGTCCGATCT
experimental-target: PPARa:RXRa (NR concentration 270 nM, RXRa partner concentration 90 nM)
PBM binding z-score: 1.07
--
sequence-data: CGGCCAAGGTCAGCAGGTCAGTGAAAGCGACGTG
experimental-target: PPARa:RXRa (NR concentration 270 nM, RXRa partner concentration 90 nM)
PBM binding z-score: 4.86
--
sequence-data: TCTTGAAGATCAGCAGGTTAAGAAAGCTGGCCAA
experimental-target: PPARa:RXRa (NR concentration 270 nM, RXRa partner concentration 90 nM)
PBM binding z-score: 0.856
--
sequence-data: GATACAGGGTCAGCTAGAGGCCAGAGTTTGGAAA
experimental-target: PPARa:RXRa (NR concentration 270 nM, RXRa partner concentration 90 nM)
PBM binding z-score: 4.08
--
sequence-data: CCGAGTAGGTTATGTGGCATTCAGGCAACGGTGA
experimental-target: PPARa:RXRa (NR concentration 270 nM, RXRa partner concentration 90 nM)
PBM binding z-score: 0.798
--
sequence-data: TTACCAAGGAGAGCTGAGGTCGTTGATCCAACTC
experimental-target: PPARa:RXRa (NR concentration 270 nM, RXRa partner concentration 90 nM)
PBM binding z-score: 0.632
--
sequence-data: CCTTACGGGTCACTGACAGGTTATAGTATTTGGA
experimental-target: PPARa:RXRa (NR concentration 270 nM, RXRa partner concentration 90 nM)
PBM binding z-score: 4.95
--
sequence-data: CAAACTACGTCACAGAGGTCAAAGTCCGTGCGTA
experimental-target: PPARa:RXRa (NR concentration 270 nM, RXRa partner concentration 90 nM)
PBM binding z-score: 5.12
--
sequence-data: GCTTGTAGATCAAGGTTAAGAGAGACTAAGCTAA
experimental-target: PPARa:RXRa (NR concentration 270 nM, RXRa partner concentration 90 nM)
PBM binding z-score: 1.36
--
sequence-data: CAAACTAGGTGACGAAAGGTCAAAGTCGAATGAC
experimental-target: PPARa:RXRa (NR concentration 270 nM, RXRa partner concentration 90 nM)
PBM binding z-score: 6.16
--
sequence-data: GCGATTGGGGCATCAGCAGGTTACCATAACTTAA
experimental-target: PPARa:RXRa (NR concentration 270 nM, RXRa partner concentration 90 nM)
PBM binding z-score: 0.814
--
sequence-data: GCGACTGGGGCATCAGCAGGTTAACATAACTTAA
experimental-target: PPARa:RXRa (NR concentration 270 nM, RXRa partner concentration 90 nM)
PBM binding z-score: 1.27

Reference source: the supplement of paper PMC6555819
